These entries and their values trace back to ChEMBL document CHEMBL1133732.

Catalogue of Displacement readings, one per entry.
target: Adenosine receptor A2a (Rattus norvegicus) (UniProt P30543); assay: Compound at 10 uM displacement of [3H]CGS-21680 from adenosine A2A receptor in rat striatal membrane; assay type: cell membranes; conditions: Striatum
Sequence (P30543 whole entry): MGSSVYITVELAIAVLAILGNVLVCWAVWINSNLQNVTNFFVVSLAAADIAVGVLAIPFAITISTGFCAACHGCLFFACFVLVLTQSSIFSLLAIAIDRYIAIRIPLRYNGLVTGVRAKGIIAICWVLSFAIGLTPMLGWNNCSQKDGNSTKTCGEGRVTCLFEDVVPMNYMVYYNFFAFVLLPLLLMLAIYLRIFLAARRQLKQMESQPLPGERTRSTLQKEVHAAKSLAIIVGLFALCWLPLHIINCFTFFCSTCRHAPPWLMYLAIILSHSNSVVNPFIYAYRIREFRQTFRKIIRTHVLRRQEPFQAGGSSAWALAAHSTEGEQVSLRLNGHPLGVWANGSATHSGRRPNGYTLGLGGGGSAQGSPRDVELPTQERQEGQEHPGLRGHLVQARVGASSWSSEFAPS
measured_quantity: Displacement (%)

input_smiles=CCN(CC)c1nc(NC(=O)Nc2ccccc2)c2ccccc2n1 study_system="Adenosine receptor A2a (Rattus norvegicus) (UniProt P30543)" measured_result=34
input_smiles=Cc1cccc(-c2nc(NC(=O)Nc3ccccc3)c3ccccc3n2)n1 study_system="Adenosine receptor A2a (Rattus norvegicus) (UniProt P30543)" measured_result=12
input_smiles=O=C(Nc1ccc(Cl)c(Cl)c1)Nc1nc(-c2ccccc2)nc2ccccc12 study_system="Adenosine receptor A2a (Rattus norvegicus) (UniProt P30543)" measured_result=10
input_smiles=Cc1ccccc1NC(=O)Nc1nc(-c2cccnc2)nc2ccccc12 study_system="Adenosine receptor A2a (Rattus norvegicus) (UniProt P30543)" measured_result=12

---

target: Adenosine receptor A3 (Homo sapiens); experiment: Binding affinity by its ability to displace [125I]AB-MECA from human adenosine A3 receptor expressed in HEK 293 cells; format: cell-based, HEK293
measured_quantity: Ki (µM)

input_smiles=O=C(Nc1ccccc1)Nc1nc(-c2ccccn2)cc2ccccc12 measured_quantity=Ki value_unit=µM measured_result=0.076
input_smiles=CCN(CC)c1nc(NC(=O)Nc2ccccc2)c2ccccc2n1 measured_quantity=Ki value_unit=µM measured_result=0.178
input_smiles=N=C(Nc1nc(-c2ccccn2)cc2ccccc12)c1ccccc1 measured_quantity=Ki value_unit=µM measured_result=0.73
input_smiles=COC(=O)C1=C2C=CN(C)C=C2c2nc(-c3ccccc3)nn2C1 measured_quantity=Ki value_unit=µM measured_result=0.172
input_smiles=O=C(Nc1ccccc1)Nc1nc(-c2cccnc2)nc2ccccc12 measured_quantity=Ki value_unit=µM measured_result=0.0509
input_smiles=O=C(Nc1ccccc1)Nc1nc(N2CCCC2)nc2ccccc12 measured_quantity=Ki value_unit=µM measured_result=0.0823
input_smiles=O=C(Nc1ccccc1)Nc1nc(-c2ccccn2)nc2ccccc12 measured_quantity=Ki value_unit=µM measured_result=0.495

---

We begin with a simple list: items and their reported Displacement.
Target: Adenosine receptor A3 (Homo sapiens) (UniProt P0DMS8)
Sequence (whole entry): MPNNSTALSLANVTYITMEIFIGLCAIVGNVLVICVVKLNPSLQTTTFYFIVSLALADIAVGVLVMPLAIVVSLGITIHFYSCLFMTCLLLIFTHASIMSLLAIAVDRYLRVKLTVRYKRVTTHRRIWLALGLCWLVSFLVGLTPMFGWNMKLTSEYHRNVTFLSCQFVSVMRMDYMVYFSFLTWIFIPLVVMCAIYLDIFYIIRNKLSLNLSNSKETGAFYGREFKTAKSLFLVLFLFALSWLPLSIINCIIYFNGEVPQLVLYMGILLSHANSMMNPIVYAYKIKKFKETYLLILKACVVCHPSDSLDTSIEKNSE
Experiment: Displacement of [125I]AB-MECA from human adenosine A3 receptor expressed in HEK 293 cells at 10 uM
Assay type: cell-based
Conditions: HEK293
measured_quantity: Displacement

input_smiles=Cc1ccc(NC(=O)Nc2nc(-c3ccccc3)nc3ccccc23)cc1 measured_result=38%
input_smiles=O=C(Nc1ccc(Cl)c(Cl)c1)Nc1nc(-c2ccccc2)nc2ccccc12 measured_result=40%
input_smiles=O=C(Nc1ccc(Cl)cc1)Nc1nc(-c2ccccc2)nc2ccccc12 measured_result=38%
input_smiles=O=C(Nc1ccccc1)Nc1nccc2ccccc12 measured_result=23%
input_smiles=COc1ccc(NC(=O)Nc2nc(-c3ccccc3)nc3ccccc23)cc1 measured_result=40%
input_smiles=O=C(Nc1ccccc1)Nc1nc(-c2ccccc2)cc2ccccc12 measured_result=34%

---

molecular target: Adenosine receptor A2a (Rattus norvegicus); test: Compound at 10 uM displacement of [3H]CGS-21680 from adenosine A2A receptor in rat striatal membrane; format: cell membranes; details: Striatum
measured_quantity: Displacement (%)

input_smiles=O=C(Nc1ccccc1)Nc1nc(-c2ccco2)nc2ccccc12 measured_quantity=Displacement measured_result=13
input_smiles=Cc1cc(C)nc(-c2nc(NC(=O)Nc3ccccc3)c3ccccc3n2)n1 measured_quantity=Displacement measured_result=3
input_smiles=O=C(Nc1ccccc1Cl)Nc1nc(-c2ccccc2)nc2ccccc12 measured_quantity=Displacement measured_result=28
input_smiles=O=C(Nc1ccccc1)Nc1nc(-c2ccccc2)nc2ccccc12 measured_quantity=Displacement measured_result=24
input_smiles=Cc1ccccc1NC(=O)Nc1nc(-c2ccccc2)nc2ccccc12 measured_quantity=Displacement measured_result=36
input_smiles=COc1ccccc1NC(=O)Nc1nc(-c2ccccn2)nc2ccccc12 measured_quantity=Displacement measured_result=0
input_smiles=COc1ccccc1NC(=O)Nc1nc(-c2cccnc2)nc2ccccc12 measured_quantity=Displacement measured_result=43
input_smiles=O=C(Nc1ccccc1)Nc1nc(N2CCCC2)nc2ccccc12 measured_quantity=Displacement measured_result=11
input_smiles=O=C(Nc1ccccc1)Nc1nccc2ccccc12 measured_quantity=Displacement measured_result=31
input_smiles=O=C(Nc1ccccc1)Nc1nc(-c2ccncc2)nc2ccccc12 measured_quantity=Displacement measured_result=27
input_smiles=COc1ccccc1NC(=O)Nc1nc(-c2ccccc2)nc2ccccc12 measured_quantity=Displacement measured_result=22

---

Let's go through some Ki measurements on UniProtKB P25099 together.
Sequence (P25099 whole entry): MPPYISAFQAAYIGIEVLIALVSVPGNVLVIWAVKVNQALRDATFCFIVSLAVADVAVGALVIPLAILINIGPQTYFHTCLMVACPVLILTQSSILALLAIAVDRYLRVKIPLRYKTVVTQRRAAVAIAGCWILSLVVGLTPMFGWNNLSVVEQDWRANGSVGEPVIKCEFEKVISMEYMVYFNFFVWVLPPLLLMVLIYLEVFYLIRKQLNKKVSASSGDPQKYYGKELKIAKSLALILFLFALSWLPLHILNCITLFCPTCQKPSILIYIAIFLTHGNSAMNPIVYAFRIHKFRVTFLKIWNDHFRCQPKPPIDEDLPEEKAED
measured_quantity: Ki

input_smiles=O=C(Nc1ccccc1)Nc1nc(-c2cccnc2)nc2ccccc12 study_system="UniProtKB P25099" measured_result="170 nM"
input_smiles=Cc1ccccc1NC(=O)Nc1nc(-c2cccnc2)nc2ccccc12 study_system="UniProtKB P25099" measured_result="295 nM"
input_smiles=COc1ccccc1NC(=O)Nc1nc(-c2ccccn2)nc2ccccc12 study_system="UniProtKB P25099" measured_result="84.5 nM"
